Target: T1, recombinant mouse DLL4 (C-terminally His-tagged extracellular domain, R&D Systems) (mouse, UniProt Q9JI71 27-532)
T1 construct: extracellular domain; also called rmDLL4; mDLL4
T1 sequence (Q9JI71 27-532): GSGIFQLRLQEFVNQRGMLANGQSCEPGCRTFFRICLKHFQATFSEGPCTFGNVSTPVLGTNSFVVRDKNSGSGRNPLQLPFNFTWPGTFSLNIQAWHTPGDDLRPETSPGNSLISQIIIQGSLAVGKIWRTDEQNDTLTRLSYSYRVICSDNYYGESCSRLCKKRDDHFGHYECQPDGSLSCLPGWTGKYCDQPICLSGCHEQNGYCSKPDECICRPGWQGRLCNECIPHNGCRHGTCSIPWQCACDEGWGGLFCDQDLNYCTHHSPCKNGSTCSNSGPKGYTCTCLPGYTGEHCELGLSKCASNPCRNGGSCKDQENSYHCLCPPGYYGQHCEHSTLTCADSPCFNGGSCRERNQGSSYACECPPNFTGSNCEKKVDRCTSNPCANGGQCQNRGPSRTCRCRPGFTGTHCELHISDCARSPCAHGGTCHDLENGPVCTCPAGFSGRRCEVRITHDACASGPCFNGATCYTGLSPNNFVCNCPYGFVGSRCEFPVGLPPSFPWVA
Assay: SPR (Biacore), rmDLL4
A collection of binders and their measured kon
quantity-measured: kon (M⁻¹ s⁻¹)

1. DLLBII129B05 (VHH, not shown: small tags and cut ends) VHH: EVQLVESGGGLVQAGGSLRLSCAASGRTFSSYAMAWYRQAPGKEREYVAAIRWSGGTAYYADSVQGRFTISRDNAKNTVYLQMNSLKPEDTAVYYCANRAPDTRLAPYEYDHWGQGTQVTVSS
270000
2. DLLBII133A09 (VHH, not shown: small tags and cut ends) VHH: EVQLVESGGGLVQPGGSLRLSCAASGFTFGSYDMSWVRRSPGKGPEWVSAINSGGGSTYYADYVKGRFTISRDNAKNTLYLQMNSLKPEDTAVYYCAADRYIWARQGEYWGAYAYDYWGQGTQVTVSS
350000
